Tested on: DENV-2
Assay: Post-treatment antiviral assay, viral titration by TCID50, DENV-infected Vero cells
Assay type: cell-based
Settings: Dengue virus, DENV2; DENV, Vero cells, MOI 0.1, concentration to reduce viral titer by 50%
Procedure: One day prior to infection with the ZIKV or DENV strain, Vero cells were seeded in 24-well plates (5 × 10^4 cells/well). The infection was performed at the multiplicity of infection (MOI) of 0.1 for 2 h at 37 °C in 5% CO2. […] At 120 h post-infection (hpi), the cytopathic effect was evaluated using an inverted microscope (AE2000 binocular microscope, Motic, Hong Kong), and cells were photographed with a smartphone. […]
Catalogue of IC50 readings, one per entry.
Report as a plain number; the unit µM is understood.

Enter reported IC50 observed with DENV-2 for O=C1C[C@@H](c2ccc(O)cc2)Oc2cc(O)cc(O)c21
42.9

More entries:
GET /values?readout=IC50&system=DENV-2&item= COc1cc(O)c2c(c1)O[C@H](c1ccc(O)cc1)CC2=O
30.9
